assay: amyloid nucleation score (Sup35N fusion, yeast selection) (log enrichment); library NNK2; higher = more nucleation; inactive = no reads after selection;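 note: zero at mode of non-aggregating sequences after 7 days selection at 30°C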
Quantity: amyloid nucleation score

Look over these answered cases.
TRYSILVDRRNRIFVVADPD
0.615
RRFVLARVPNNKCPQTIRLD
0.733
GCWSPKLSIGRRSRSALYRG
1.2
GSLARSTD
1.25
KDKGKNDRAIAWVLWGICVL
0.51
ADHELVVITDVGFRLGSTGD
-0.226
YLRMDLVKWKWVGDGSQVC
2.86
CHRKWRYLMEASHRLSHSSW
inactive
TCGLFTA
1.2
VGVFNFAGTTTSVGVNVSYT
2.78

What amyloid nucleation score value was documented for this substance, RSLVDLMRGFDIV ?
5.62

What amyloid nucleation score value was documented for this substance, YYSSLTYCMLQWYSLFWWGH ?
0.658

What amyloid nucleation score value was documented for this substance, EGLIDCCIH ?
inactive

What amyloid nucleation score value was documented for this substance, ERDSGPEYIVCIQVVIYLGM ?
3.06

What amyloid nucleation score value was documented for this substance, IWPMEWNCTMDYRSPWMRHR ?
2.06

What amyloid nucleation score value was documented for this substance, EALMSSTIYYVPCSRHLIMF ?
-0.576

What amyloid nucleation score value was documented for this substance, YGFSGMMNSFSFHGC ?
6.07

What amyloid nucleation score value was documented for this substance, TRDAVGVLTLSSTLTTCSTC ?
-0.26

What amyloid nucleation score value was documented for this substance, ARWWMSSKRR ?
0.026

What amyloid nucleation score value was documented for this substance, YGPWSCLI ?
inactive
